These measurements were taken from patent US10485803B2.

assay: Determination of absorption in cannulated rats; assay type: in vivo, Sprague Dawley rats; conditions: rat, oral vs IV dose, portal vein
measured.property: absorption at the portal vein (Fa%)

> print(dat)
                               entry.smiles                    measured.property           reading
1  COc1cc(Nc2cc(CO)[nH]n2)nc(N(C)[C@@H]2C[C@H]3CC[C@@H](C2)N3S(=O)(=O)N2CC(C#N)C2)n1  absorption at the portal vein (Fa%)     less than 25%
2  COc1cc(Nc2cc(CO)[nH]n2)nc(N(C)[C@@H]2C[C@H]3CCC[C@@H](C2)N3S(C)(=O)=O)n1  absorption at the portal vein (Fa%)  greater than 40%
3  COc1cc(Nc2cc(CO)[nH]n2)nc(N(C)[C@@H]2C[C@H]3CCC[C@@H](C2)N3S(=O)(=O)N2CC(C#N)C2)n1  absorption at the portal vein (Fa%)     less than 25%
4  COCCS(=O)(=O)N1[C@@H]2CCC[C@H]1C[C@H](N(C)c1nc(Nc3cc(CO)[nH]n3)cc(OC)n1)C2  absorption at the portal vein (Fa%)  greater than 40%
